- target or system: T1, Ala mutant of TA0096, SEQ ID NO: 40
- T1 peptide: EENMDDQWMQDEMAIGY
- method: ELISA, coated peptide
measured quantity: OD 490/630 nm
Please give the numeric answer without any surrounding text.

Sure, the documented OD 490/630 nm for G9 (antibody, V domains shown, Chicken variable regions in a mouse chimeric antibody (IgG1); also called anti-PAD4 antibody G9) VH: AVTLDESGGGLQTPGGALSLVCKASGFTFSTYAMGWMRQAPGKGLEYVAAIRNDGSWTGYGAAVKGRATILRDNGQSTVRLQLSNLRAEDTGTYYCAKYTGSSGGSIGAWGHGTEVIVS VL: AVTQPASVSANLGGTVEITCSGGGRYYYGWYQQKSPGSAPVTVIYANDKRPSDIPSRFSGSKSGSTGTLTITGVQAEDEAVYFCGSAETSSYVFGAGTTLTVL is 1.88

Sure, the documented OD 490/630 nm for H7 (antibody, V domains shown, Chicken variable regions in a mouse chimeric antibody (IgG1); also called anti-PAD4 antibody H7) VH: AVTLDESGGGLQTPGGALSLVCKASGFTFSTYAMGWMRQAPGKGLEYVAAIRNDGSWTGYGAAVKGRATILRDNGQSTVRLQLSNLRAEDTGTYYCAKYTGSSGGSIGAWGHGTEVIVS VL: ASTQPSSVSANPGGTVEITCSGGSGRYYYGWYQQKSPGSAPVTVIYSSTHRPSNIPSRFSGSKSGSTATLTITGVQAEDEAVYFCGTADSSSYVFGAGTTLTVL is 1.86

Sure, the documented OD 490/630 nm for E9 (antibody, V domains shown, Chicken variable regions in a mouse chimeric antibody (IgG1); also called anti-PAD4 antibody E9) VH: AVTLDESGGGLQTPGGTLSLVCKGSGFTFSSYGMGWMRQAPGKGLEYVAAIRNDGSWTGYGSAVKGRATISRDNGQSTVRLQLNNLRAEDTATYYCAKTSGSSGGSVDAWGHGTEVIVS VL: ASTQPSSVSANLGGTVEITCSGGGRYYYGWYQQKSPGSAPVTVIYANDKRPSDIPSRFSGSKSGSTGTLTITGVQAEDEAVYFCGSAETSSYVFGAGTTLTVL is 1.82

Sure, the documented OD 490/630 nm for G8 (antibody, V domains shown, Chicken variable regions in a mouse chimeric antibody (IgG1); also called anti-PAD4 antibody G8) VH: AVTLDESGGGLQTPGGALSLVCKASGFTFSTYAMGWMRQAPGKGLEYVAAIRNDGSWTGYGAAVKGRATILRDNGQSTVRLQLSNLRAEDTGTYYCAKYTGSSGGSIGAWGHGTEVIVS VL: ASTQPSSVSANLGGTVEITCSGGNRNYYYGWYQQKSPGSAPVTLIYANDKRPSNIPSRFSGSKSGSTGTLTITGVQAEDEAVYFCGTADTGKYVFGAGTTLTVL is 1.89

Sure, the documented OD 490/630 nm for G6 (antibody, V domains shown, Chicken variable regions in a mouse chimeric antibody (IgG1); also called anti-PAD4 antibody G6) VH: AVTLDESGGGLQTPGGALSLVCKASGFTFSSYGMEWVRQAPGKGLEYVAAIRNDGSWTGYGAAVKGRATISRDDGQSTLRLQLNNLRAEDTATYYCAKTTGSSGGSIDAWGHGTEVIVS VL: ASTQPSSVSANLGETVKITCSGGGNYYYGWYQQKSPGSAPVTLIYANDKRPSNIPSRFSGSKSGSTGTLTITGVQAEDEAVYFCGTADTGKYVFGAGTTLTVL is 1.86

Sure, the documented OD 490/630 nm for A11 (antibody, V domains shown, Chicken variable regions in a mouse chimeric antibody (IgG1); also called anti-PAD4 antibody A11) VH: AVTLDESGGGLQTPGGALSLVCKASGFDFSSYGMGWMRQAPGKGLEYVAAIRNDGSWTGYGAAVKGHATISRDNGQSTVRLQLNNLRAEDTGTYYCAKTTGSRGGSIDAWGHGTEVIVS VL: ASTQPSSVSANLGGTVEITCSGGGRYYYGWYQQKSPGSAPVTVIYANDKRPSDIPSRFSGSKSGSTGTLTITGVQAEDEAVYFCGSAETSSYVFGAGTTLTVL is 1.85
